Reference for the values: the supplement of paper PMC11865577

test system: TO-N3-2 (biotin conjugate); assay: pull-down binding Z-score (relative to library population); higher = stronger binding; conditions: RNA library: Library-2
Label false (0) if pull-down binding Z-score falls below -0.3; label true (1) in every other case.

As a guide, the following entries are already answered.
INSERT INTO assay_data (sequence_code, class_assignment) VALUES
  ('AGCCCUGGGCUCCUCAGCAAACCUACUGGAU [hsa-mir-3174]', 'true (1)'),
  ('GUAUGAGUGGUGUGGAGUCUUCAUAA [hsa-mir-9-1]', 'true (1)'),
  ('UUAUACCUGAUGCUCACGUAUAA [hsa-mir-208a]', 'false (0)'),
  ('GUUUGGGUGCGGUUGGGAGUCUCUAAU [hsa-mir-200c]', 'true (1)'),
  ('CCCCAAAAGAAAUUAUCUUCUUAGAGGG', 'true (1)');

Problem: Decide: is the reported value of pull-down binding Z-score for GAUAACAACUUC [SHAPE_invitro_SARS-CoV-2_Motif_16] equal to or greater than -0.3?
Result: false (0)

Problem: Decide: is the reported value of pull-down binding Z-score for GGUAAAAUUGUUAAUAAUUGGUUGAAGCAGUUAAUUAAAGUUACACUUGUGUUCCUUUUUGUUGCUGCUAUUUUCUAUUUAAUAACACC [DMSMaPseq_invitro_SARS-CoV-2_Motif_156] equal to or greater than -0.3?
Result: false (0)

Problem: Decide: is the reported value of pull-down binding Z-score for CGGGGGGGGCCCGGGGACGGCUUGGGCCUGCCUAGUCGG [hsa-mir-1234] equal to or greater than -0.3?
Result: true (1)

Problem: Decide: is the reported value of pull-down binding Z-score for CCUUGCCUGUGGCAAGACCACUUCGGUUCAAGG [hsa-mir-4295] equal to or greater than -0.3?
Result: true (1)

Problem: Decide: is the reported value of pull-down binding Z-score for GGGUGGGUGGGUGGGUGGGUGGGUGGGUGGGU [G4_r(GGGU)8] equal to or greater than -0.3?
Result: true (1)

###

system: TO-N3 (biotin conjugate); test: pull-down binding Z-score (relative to library population); higher = stronger binding; details: RNA library: Library-2
Label not satisfied if pull-down binding Z-score falls below -0.4; label satisfied in every other case.

As a guide, the following entries are already answered.
INSERT INTO results (sequence_code, class_assignment) VALUES
  ('AAGGCGGGUGGUGCUCAGAUCGCCU [hsa-mir-326]', 'satisfied'),
  ('UGGCAAAGACAUAGAUUGUUUAGCUACCCCUUUGCCA [hsa-mir-3119-2]', 'not satisfied'),
  ('ACUGAACCAGCUUCAAACAAGUUCACU [hsa-mir-653]', 'satisfied'),
  ('GUUUUACUAUGAUGAGGUGUGCCAUCCACCCCAUCAUAGUAAAC [hsa-mir-606]', 'not satisfied');

Below: the item to evaluate.
Problem: Decide: is the reported value of pull-down binding Z-score for UCUCAAAAUAAUUCUGCAGUGAGA [hsa-mir-4524b] equal to or greater than -0.4?
Result: not satisfied

###

test system: G-clamp-N3 (biotin conjugate); test: pull-down binding Z-score (relative to library population); higher = stronger binding; conditions: RNA library: Library-1 (pre-miRNA loops + repeats)
Reported pull-down binding Z-score values follow for various sequences
# respond with the number and nothing more

INSERT INTO results (sequence_code, assay_target, readout_label, reported_value) VALUES
  ('CCUGUUUGAAUAUUUCACCAGAAACAGG [hsa-mir-4433b]', 'G-clamp-N3 (biotin conjugate)', 'pull-down binding Z-score', 1.2),
  ('UUUUGCAGUUGAAAGUAAUGGCAAAG [hsa-mir-548ao]', 'G-clamp-N3 (biotin conjugate)', 'pull-down binding Z-score', 2.64),
  ('GGUUUCCUUCGGGGCAGGUGGGGACUGCUCCUUUGGGAGGAAGGAGGAGGCC [hsa-mir-4453]', 'G-clamp-N3 (biotin conjugate)', 'pull-down binding Z-score', 1.28),
  ('GGUUCUGGGGUGUAGACGCUGCUGGCCAGCC [hsa-mir-4707]', 'G-clamp-N3 (biotin conjugate)', 'pull-down binding Z-score', 1.08);

Problem: Answer with reported pull-down binding Z-score of UUCCUUGUCUGUAGCCAUGUCUAUGGGCUCUUGAG [hsa-mir-571]
Result: -0.205

###

test system: TO-N3-2 (biotin conjugate); assay: pull-down binding Z-score (relative to library population); higher = stronger binding; details: RNA library: Library-2
Reported pull-down binding Z-score values follow for various sequences

Answered cases to consult:
INSERT INTO measurements (sequence_code, reported_value) VALUES
  ('ACGUACUGCCACUAAAGCAUACAAUGUAACACAAGCUUUCGGCAGACGU', 0.871),
  ('GCUGGUCGCGGGUUGUGGGGUUUAGGUCACCGGC [hsa-mir-5091]', 2.87),
  ('AGUUGCUUACUCUAAUAACU [DMSMaPseq_invitro_SARS-CoV-2_Motif_421]', -0.822),
  ('CAUGAAGUGUGAUCAUUGUGGUGAAACUUCAUG', -0.279);

Problem: Answer with reported pull-down binding Z-score of CAUGUUUAUCACCCGCGAAGAAGCUAUAAGACAUGUACGUGCAUGGAUUGGCUUCGAUGUCGAGGGGUGUCAUG [DMSMaPseq_invitro_SARS-CoV-2_Motif_326]
Result: -0.0649

Problem: Answer with reported pull-down binding Z-score of GGAGUUGAUGCACAGUUAUCCAGCUCC [hsa-mir-337]
Result: -0.0382

Problem: Answer with reported pull-down binding Z-score of AUAGUUGAGGAGGACACCCAAGGAGAUCACUAU [hsa-let-7e]
Result: 1.26

Problem: Answer with reported pull-down binding Z-score of UGGUCAGGCGGCU [hsa-mir-3917]
Result: 0.442

Problem: Answer with reported pull-down binding Z-score of GUCACAAAUUCAAAUAAAGUGAG [hsa-mir-4693]
Result: 0.598

Problem: Answer with reported pull-down binding Z-score of GUUAAAAUAUGAC [SHAPE_invivo_SARS-CoV-2_Motif_271]
Result: -0.892

###

Reported pull-down binding Z-score values follow for various sequences
test system: TO-3-N3 (biotin conjugate); assay: pull-down binding Z-score (relative to library population); higher = stronger binding; details: RNA library: Library-2
# respond with the number and nothing more

Answered cases to consult:
INSERT INTO results (sequence_code, reported_value) VALUES
  ('UGUCAUUGAAAGUAAUAGCA [hsa-mir-548h-3]', -0.165),
  ('GCUGCUGCCCCAGAGGCCCAGCAGGUGUCCAGAAC [hsa-mir-6750]', 0.55),
  ('AUGGUGUUUGUGAGUUGAUUGACAUCGU [hsa-mir-6506]', -0.398);

Problem: Answer with reported pull-down binding Z-score of GGGUCAGGUCUGCAGCCUUGUAUCUGCUGAUCC [hsa-mir-6881]
Result: -0.183

Problem: Answer with reported pull-down binding Z-score of UCUGGAGUAAAAGACUGUGUUGUAUUACACAGUUACUUCACUUCAGA
Result: -0.0665

###

system: TO-3-N3 (biotin conjugate); test: pull-down binding Z-score (relative to library population); higher = stronger binding; details: RNA library: Library-2
Label f if pull-down binding Z-score falls below -0.1; label t in every other case.

As a guide, the following entries are already answered.
INSERT INTO measurements (sequence_code, assay_target, class_assignment) VALUES
  ('CCUGCAGGUGAGAGCGGGAACACCUGCAU [hsa-mir-7112]', 'TO-3-N3 (biotin conjugate)', 'f'),
  ('UAGCUUGUUUUGUGCUUGCUG [SHAPE_invivo_SARS-CoV-2_Motif_507]', 'TO-3-N3 (biotin conjugate)', 't'),
  ('CUGCAGAUGCAG [IAV_invivo_HA_4_Motif_2+IAV_invivo_HA_4_Motif_2]', 'TO-3-N3 (biotin conjugate)', 'f');

Problem: Decide: is the reported value of pull-down binding Z-score for UUCAUUUUAUUUAUGAUGAG [hsa-mir-496] equal to or greater than -0.1?
Result: f

Problem: Decide: is the reported value of pull-down binding Z-score for AUCUCCUUUAGGAAAACCUUCUGUGGGGAGU [hsa-mir-1296] equal to or greater than -0.1?
Result: t

Problem: Decide: is the reported value of pull-down binding Z-score for GAGACUGCCCAAAGACUCUUCAGUAUC [hsa-mir-2681] equal to or greater than -0.1?
Result: t

Problem: Decide: is the reported value of pull-down binding Z-score for CCACGCCAGGUAGUGG equal to or greater than -0.1?
Result: t

Problem: Decide: is the reported value of pull-down binding Z-score for UGGAUCACGCCGACAACACUGGUCU [hsa-mir-4635] equal to or greater than -0.1?
Result: t

Problem: Decide: is the reported value of pull-down binding Z-score for CUUACUGCCCGGGCCGCCCUCAGUAA [hsa-mir-212] equal to or greater than -0.1?
Result: t

Problem: Decide: is the reported value of pull-down binding Z-score for AGAUGUGUUUCCAUUCCACUAUCAUAAU [hsa-mir-365a] equal to or greater than -0.1?
Result: f

Problem: Decide: is the reported value of pull-down binding Z-score for CGGUCCCAUAUUGAACUCG [hsa-mir-4444-1_4444-2] equal to or greater than -0.1?
Result: f
